For each entry below, report its GI50 value.
Tested on: MOLT-4 cells
Test: In vitro cytotoxicity / cell growth inhibition, leukemia
Type: cell-based
Conditions: Homo sapiens; MOLT-4, leukemia, 48 hr; read-out: log10 G150 (converted)

Requested field: GI50. Item: CC1CN1CCCNCCCCNCCCN1CC1C (stereo not shown) [Synthesis Example 4]
2.95 µM

Requested field: GI50. Item: C(CCNCCCN1CC1)CNCCCN1CC1 [Synthesis Example 1, 1,12-Diaziridinyl-4,9-diazadodecane]
0.0447 µM

Requested field: GI50. Item: C(CNCCCN1CC1)CNCCCN1CC1 [Synthesis Example 2, 1,11-Diaziridinyl-4,8-diazaundecane]
3.09 µM

Requested field: GI50. Item: CC(CCNCCCCNCCC(C)N1CC1)N1CC1 (stereo not shown) [Synthesis Example 3, 2,13-Diaziridinyl-5,10-diazatetradecane]
3.24 µM

* * *

Tested on: SF-539 cells
Test: In vitro cytotoxicity / cell growth inhibition, CNS cancer
Type: cell-based
Settings: Homo sapiens; SF-539, CNS cancer, 48 hr; read-out: log10 G150 (converted)
For each entry below, report its GI50 value.
Could you give me the number in µM? Just the number is fine.

Requested field: GI50. Item: C(CCNCCCN1CC1)CNCCCN1CC1 [Synthesis Example 1, 1,12-Diaziridinyl-4,9-diazadodecane]
0.0372

Requested field: GI50. Item: CC1CN1CCCNCCCCNCCCN1CC1C (stereo not shown) [Synthesis Example 4]
12.9

Requested field: GI50. Item: C(CNCCCN1CC1)CNCCCN1CC1 [Synthesis Example 2, 1,11-Diaziridinyl-4,8-diazaundecane]
11.2

Requested field: GI50. Item: CC(CCNCCCCNCCC(C)N1CC1)N1CC1 (stereo not shown) [Synthesis Example 3, 2,13-Diaziridinyl-5,10-diazatetradecane]
6.31

* * *

Tested on: HOP-62 cells
Test: In vitro cytotoxicity / cell growth inhibition, non-small cell lung cancer
Type: cell-based
Conditions: Homo sapiens; HOP-62, non-small cell lung cancer, 48 hr; read-out: log10 G150 (converted)
For each entry below, report its GI50 value.
Could you give me the number in µM? Just the number is fine.

# returns recorded GI50 (system: HOP-62 cells) for C(CNCCCN1CC1)CNCCCN1CC1 [Synthesis Example 2, 1,11-Diaziridinyl-4,8-diazaundecane]
6.31

# returns recorded GI50 (system: HOP-62 cells) for CC(CCNCCCCNCCC(C)N1CC1)N1CC1 (stereo not shown) [Synthesis Example 3, 2,13-Diaziridinyl-5,10-diazatetradecane]
30.9

# returns recorded GI50 (system: HOP-62 cells) for C(CCNCCCN1CC1)CNCCCN1CC1 [Synthesis Example 1, 1,12-Diaziridinyl-4,9-diazadodecane]
0.0589

# returns recorded GI50 (system: HOP-62 cells) for CC1CN1CCCNCCCCNCCCN1CC1C (stereo not shown) [Synthesis Example 4]
10.7

* * *

Test system: KM12 cells
Test: In vitro cytotoxicity / cell growth inhibition, colon cancer
Assay type: cell-based
Conditions: Homo sapiens, 48 hr, read-out: log10 G150 (converted)
Procedure: The anti-proliferative activities of the aziridinylpolyamines obtained in Synthesis Examples 1-4 were assessed by determining log10 G150 values against human cancer cell lines using the screening strategy described by Boyd et al, Drug Devel. Res. 34:91-109 (1995). More specifically, the compounds were tested at a minimum of five concentrations at 10-fold dilutions using a 48 hr continuous exposure protocol. Each cell line shown in Table 1 below was inoculated onto microtiter plates. […]
measurement name: GI50 (µM)
Could you give me the number in µM? Just the number is fine.

Requested field: GI50. Item: CC1CN1CCCNCCCCNCCCN1CC1C (stereo not shown) [Synthesis Example 4]
64.6

Requested field: GI50. Item: C(CCNCCCN1CC1)CNCCCN1CC1 [Synthesis Example 1, 1,12-Diaziridinyl-4,9-diazadodecane]
15.5

Requested field: GI50. Item: CC(CCNCCCCNCCC(C)N1CC1)N1CC1 (stereo not shown) [Synthesis Example 3, 2,13-Diaziridinyl-5,10-diazatetradecane]
81.3

Requested field: GI50. Item: C(CNCCCN1CC1)CNCCCN1CC1 [Synthesis Example 2, 1,11-Diaziridinyl-4,8-diazaundecane]
19.5
